# target of assay: human ether-à-go-go-related gene (hERG) potassium channel (human);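 also: peak tail current of the secondary pulse compared with the same well before compound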
# Sequence (Q12809 whole entry, looked up): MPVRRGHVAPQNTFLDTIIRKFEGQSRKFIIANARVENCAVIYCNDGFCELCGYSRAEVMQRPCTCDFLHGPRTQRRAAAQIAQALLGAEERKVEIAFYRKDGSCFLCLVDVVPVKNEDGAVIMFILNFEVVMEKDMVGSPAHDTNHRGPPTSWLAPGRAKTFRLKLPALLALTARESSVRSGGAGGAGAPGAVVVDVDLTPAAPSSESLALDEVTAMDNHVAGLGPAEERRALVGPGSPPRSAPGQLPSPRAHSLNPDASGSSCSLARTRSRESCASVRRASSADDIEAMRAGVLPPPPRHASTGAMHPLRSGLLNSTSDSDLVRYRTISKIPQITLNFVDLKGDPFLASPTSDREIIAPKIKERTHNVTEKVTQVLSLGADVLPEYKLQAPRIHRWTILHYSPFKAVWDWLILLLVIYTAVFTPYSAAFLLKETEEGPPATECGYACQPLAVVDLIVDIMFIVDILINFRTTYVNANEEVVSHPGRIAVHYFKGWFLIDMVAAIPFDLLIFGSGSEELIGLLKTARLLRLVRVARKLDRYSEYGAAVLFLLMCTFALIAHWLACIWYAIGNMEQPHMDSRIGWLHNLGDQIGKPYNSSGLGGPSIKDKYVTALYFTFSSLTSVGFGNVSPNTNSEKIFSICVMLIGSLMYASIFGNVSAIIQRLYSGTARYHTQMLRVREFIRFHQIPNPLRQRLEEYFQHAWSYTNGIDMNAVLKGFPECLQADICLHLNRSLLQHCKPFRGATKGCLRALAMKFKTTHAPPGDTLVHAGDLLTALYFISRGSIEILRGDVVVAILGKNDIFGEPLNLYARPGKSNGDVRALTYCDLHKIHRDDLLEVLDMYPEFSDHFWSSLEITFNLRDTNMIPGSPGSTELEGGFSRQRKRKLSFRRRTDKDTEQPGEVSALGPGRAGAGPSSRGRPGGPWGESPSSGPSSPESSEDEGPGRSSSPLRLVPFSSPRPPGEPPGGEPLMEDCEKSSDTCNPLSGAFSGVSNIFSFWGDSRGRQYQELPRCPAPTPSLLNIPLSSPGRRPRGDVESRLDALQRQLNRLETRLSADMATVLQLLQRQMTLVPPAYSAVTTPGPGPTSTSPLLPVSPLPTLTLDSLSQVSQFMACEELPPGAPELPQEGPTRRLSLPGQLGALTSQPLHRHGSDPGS
# assay procedure: primary screen, population patch clamp on CHO cells stably expressing hERG; higher = less effect of the substance
# Method: Briefly, Chinese hamster ovary (CHO) cells stably expressing the hERG channel were dislodged from tissue culture flasks and dispensed into PPC plates. […] During the recording, background leak currents were estimated by a 100 ms step to -80 mV from an initial holding potential of -70 mV and subtracted from the subsequent current measurement. The campaign was conducted in two phases using slight differences in recording protocol. […]
Out of some 310,000 compounds screened, about 14,000 (4.5%) showed an effect of 50% or more. Effects have a minus sign here. The list comes from a sample in which strong results are over-represented; it also holds close analogues and randomly drawn compounds.
Mark condition not met for hERG current change (%, negative = inhibition) at 10uM values under -10%, and condition met for everything at or above.

[
  {
    "molecule": "COc1ccc(C(=O)N(Cc2ccccc2)c2cccc(C)c2)cc1S(=O)(=O)N1CCOCC1",
    "group label": "condition not met"
  },
  {
    "molecule": "CCCCOc1ccc(CN(CCO)CCO)cc1[N+](=O)[O-].Cl",
    "group label": "condition not met"
  },
  {
    "molecule": "CCOC(=O)C1(CCOC)CCN(Cc2ccc3nonc3c2)CC1",
    "group label": "condition not met"
  },
  {
    "molecule": "CC(=O)Nc1ccccc1NC(=O)C/C(C)=N/NC(=O)c1ccccn1",
    "group label": "condition met"
  },
  {
    "molecule": "Cc1ccc(C)c2[nH]c(=O)c(CN(CCN3CCCC3)C(=O)Nc3cccc(Cl)c3)cc12",
    "group label": "condition not met"
  },
  {
    "molecule": "COc1ccc(NC(=O)N(CCO)Cc2cc3c(C)cc(C)cc3[nH]c2=O)cc1",
    "group label": "condition not met"
  },
  {
    "molecule": "Cc1cc(C)c2cc(CN(CCN3CCCC3)C(=O)Nc3ccc(F)cc3)c(=O)[nH]c2c1",
    "group label": "condition not met"
  },
  {
    "molecule": "Cc1ccc(N(Cc2ccccc2)C(=O)c2ccc(F)c(S(=O)(=O)N3CCOCC3)c2)cc1",
    "group label": "condition not met"
  },
  {
    "molecule": "CN1CCN(C(=O)CC2(CC(=O)O)CCCC2)CC1.Cl",
    "group label": "condition met"
  },
  {
    "molecule": "Cc1cccc(N(Cc2ccccc2)C(=O)c2cc(S(=O)(=O)N3CCOCC3)ccc2Cl)c1",
    "group label": "condition not met"
  },
  {
    "molecule": "COc1ccc(C(=O)N(Cc2ccccc2)c2ccc(C)cc2)cc1S(=O)(=O)N1CCOCC1",
    "group label": "condition not met"
  },
  {
    "molecule": "Cc1ccc2cc(CN(CC3CCCO3)C(=O)NC3CCCCC3)c(=O)[nH]c2c1C (centres unmarked)",
    "group label": "condition not met"
  },
  {
    "molecule": "Cc1ccc2cc(CN(CCN3CCCC3)C(=O)Nc3ccccc3)c(=O)[nH]c2c1C",
    "group label": "condition not met"
  },
  {
    "molecule": "O=C(Nc1cccc(Cl)c1)N(CCN1CCOCC1)Cc1cccc(Cl)c1",
    "group label": "condition not met"
  },
  {
    "molecule": "COc1ccc(CN(CCO)CCO)cc1[N+](=O)[O-].Cl",
    "group label": "condition met"
  },
  {
    "molecule": "Cc1ccc(N(Cc2ccccc2)C(=O)c2ccc(C)c(S(=O)(=O)N3CCOCC3)c2)cc1",
    "group label": "condition not met"
  },
  {
    "molecule": "Cc1[nH]c(=O)[nH]c(=O)c1S(=O)(=O)Nc1ccc(F)cc1Cl",
    "group label": "condition met"
  },
  {
    "molecule": "O=C(O)c1ccc(NS(=O)(=O)c2ccc(N3CCCC3)c([N+](=O)[O-])c2)cc1",
    "group label": "condition met"
  },
  {
    "molecule": "Cc1ccc(N(Cc2ccccc2)C(=O)c2ccc(Cl)c(S(=O)(=O)N3CCOCC3)c2)cc1",
    "group label": "condition not met"
  },
  {
    "molecule": "COc1ccc(NC(=O)N(CCN2CCCC2)Cc2cc3cc(OC)c(OC)cc3[nH]c2=O)cc1",
    "group label": "condition met"
  },
  {
    "molecule": "CCCCN1C(=O)/C(=C/c2ccc(N3CCCCCC3)cc2)C(=O)NC1=S",
    "group label": "condition not met"
  },
  {
    "molecule": "Cc1ccc(S(=O)(=O)NNC(=O)c2sccc2-n2cccc2)cc1",
    "group label": "condition not met"
  },
  {
    "molecule": "COc1ccc(NC(=S)N(CCO)Cc2cc3c(C)cc(C)cc3[nH]c2=O)cc1",
    "group label": "condition not met"
  },
  {
    "molecule": "Cc1cccc2cc(CN(CCCO)C(=O)Nc3cccc(Cl)c3)c(=O)[nH]c12",
    "group label": "condition not met"
  },
  {
    "molecule": "Cl.O=[N+]([O-])c1cc(CN(CCO)CCO)ccc1O",
    "group label": "condition met"
  },
  {
    "molecule": "COc1ccc(CC(=O)N(Cc2ccccc2)c2ccccc2)cc1S(=O)(=O)N1CCOCC1",
    "group label": "condition met"
  },
  {
    "molecule": "Cc1c(/C=N\\NC(=O)C2COc3ccc(C(C)(C)C)cc3O2)c2ccccc2n1C (centres unmarked)",
    "group label": "condition met"
  },
  {
    "molecule": "CCOC(=O)CCN(Cc1ccccc1)S(=O)(=O)c1csc(C(N)=O)c1",
    "group label": "condition not met"
  },
  {
    "molecule": "Cc1ccc(C)c2[nH]c(=O)c(CN(CC3CCCO3)C(=O)NC3CCCCC3)cc12 (centres unmarked)",
    "group label": "condition met"
  },
  {
    "molecule": "CCOc1ccc(CN(CCO)CCO)cc1[N+](=O)[O-].Cl",
    "group label": "condition not met"
  },
  {
    "molecule": "O=C(NC(=S)Nc1ccccc1F)c1ccc(Br)o1",
    "group label": "condition met"
  },
  {
    "molecule": "Cc1cc(NC(CC(C)C)C(=O)O)nc(Cc2ccccc2)n1 (centres unmarked)",
    "group label": "condition met"
  },
  {
    "molecule": "CC(=O)Oc1cccc(N2C(=O)C3C4C=CC(CC4)C3C2=O)c1 (centres unmarked)",
    "group label": "condition met"
  },
  {
    "molecule": "Cc1ccc(NC(=O)[C@@H]2CCCN2S(=O)(=O)c2ccccc2C(F)(F)F)cc1S(=O)(=O)N1CCOCC1",
    "group label": "condition not met"
  },
  {
    "molecule": "CCOC(=O)C1(CCOc2ccccc2)CCN(Cc2cc(OC)c(O)c(OC)c2)CC1",
    "group label": "condition not met"
  },
  {
    "molecule": "Cc1ccc2cc(CN(CCN(C)C)C(=S)Nc3ccccc3)c(=O)[nH]c2c1C",
    "group label": "condition not met"
  }
]

----------
# target of assay: human ether-à-go-go-related gene (hERG) potassium channel (human);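 also: peak tail current of the secondary pulse compared with the same well before compound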
# assay procedure: primary screen, population patch clamp on CHO cells stably expressing hERG; higher = less effect of the substance
Screen size: about 310,000 compounds; about 14,000 (4.5%) showed an effect of 50% or more. The effect is printed as a negative number. The full list was thinned out, with strong results kept by preference.
observable: hERG current change (%, negative = inhibition) at 10uM (%)

[
  {
    "molecule": "Cc1ccccc1Nc1nc(N)nc(CCl)n1",
    "measurement": 10.5
  },
  {
    "molecule": "Cc1ccccc1Nc1nc(N)nc(CSc2ccccc2)n1",
    "measurement": -21
  },
  {
    "molecule": "Cc1ccc(N/C(N)=N/c2nc(CSc3nnc(C)s3)cc(=O)[nH]2)c(C)c1",
    "measurement": -8.86
  },
  {
    "molecule": "O=C(Cc1ccsc1)N1CCc2c([nH]c3ccccc23)C1c1ccccn1 (stereo not shown)",
    "measurement": 4.87
  },
  {
    "molecule": "Clc1ccc(-n2cccc2CN2CCc3c([nH]c4ccccc34)C2c2ccccn2)nc1 (stereo not shown)",
    "measurement": -77
  },
  {
    "molecule": "CC(=O)Nc1ccc(CN2CCc3c([nH]c4ccccc34)C2c2ccccn2)cc1 (stereo not shown)",
    "measurement": -38.5
  },
  {
    "molecule": "Nc1nc(CSc2ccccn2)nc(Nc2ccccc2)n1",
    "measurement": 1.81
  },
  {
    "molecule": "Cc1ccc(C(=O)NNC(=O)C(C)Oc2ccc3ccccc3c2)o1 (stereo not shown)",
    "measurement": -13.2
  },
  {
    "molecule": "O=C(NCCc1ccncc1)Nc1cccc(Cl)c1",
    "measurement": -3.75
  },
  {
    "molecule": "COc1ccc(CNC(=O)CN2CCN(c3ccccc3O)CC2)cc1OC",
    "measurement": 12.6
  }
]
